Provenance of the data: the supplement of paper PMC10307832

system: LXF-289; assay: relative viability (nuclei count vs DMSO), 5 days (fraction); higher = more cells survive; conditions: first compound 0.6325 µM
reportedMetric: relative viability
Give bare numbers.

1. Cc1csc(=NC2CCCCC2)n1/N=C/c1ccc(O)c(O)c1O [MIM1] + CS(=O)(=O)N1CCN(Cc2cc3nc(-c4cccc5[nH]ncc45)nc(N4CCOCC4)c3s2)CC1 [Pictilisib] (partner 1 µM)
0.689
2. Cc1csc(=NC2CCCCC2)n1/N=C/c1ccc(O)c(O)c1O [MIM1] + Cc1nc(Nc2ncc(C(=O)Nc3c(C)cccc3Cl)s2)cc(N2CCN(CCO)CC2)n1 [Dasatinib] (partner 0.075 µM)
0.174
3. CN1CCN(CCOc2cc(OC3CCOCC3)c3c(Nc4c(Cl)ccc5c4OCO5)ncnc3c2)CC1 [Saracatinib] + Cc1nc(Nc2ncc(C(=O)Nc3c(C)cccc3Cl)s2)cc(N2CCN(CCO)CC2)n1 [Dasatinib] (partner 0.075 µM)
0.185
4. CN1CCN(CCOc2cc(OC3CCOCC3)c3c(Nc4c(Cl)ccc5c4OCO5)ncnc3c2)CC1 [Saracatinib] + Cc1cc(Nc2cc(N3CCN(C)CC3)nc(Sc3ccc(NC(=O)C4CC4)cc3)n2)n[nH]1 [Tozasertib] (partner 0.1 µM)
0.164
5. Cc1csc(=NC2CCCCC2)n1/N=C/c1ccc(O)c(O)c1O [MIM1] + NC(=O)Nc1cc(-c2cccc(F)c2)sc1C(=O)N[C@H]1CCCNC1 [AZD7762] (partner 0.2 µM)
0.905
6. CN1CCN(CCOc2cc(OC3CCOCC3)c3c(Nc4c(Cl)ccc5c4OCO5)ncnc3c2)CC1 [Saracatinib] + CC(C)C[C@H](NC(=O)[C@H](Cc1ccccc1)NC(=O)c1cnccn1)B(O)O [Bortezomib] (partner 0.002 µM)
0.966
7. Cc1csc(=NC2CCCCC2)n1/N=C/c1ccc(O)c(O)c1O [MIM1] + O=C(c1cc(Cc2n[nH]c(=O)c3ccccc23)ccc1F)N1CCN(C(=O)C2CC2)CC1 [Olaparib] (partner 8 µM)
0.844
8. CN1CCN(CCOc2cc(OC3CCOCC3)c3c(Nc4c(Cl)ccc5c4OCO5)ncnc3c2)CC1 [Saracatinib] + C[C@@H](Oc1cc(-c2cnn(C3CCNCC3)c2)cnc1N)c1c(Cl)ccc(F)c1Cl [Crizotinib] (partner 1 µM)
0.847

Which relative viability is reported for this molecule? CN1CCN(CCOc2cc(OC3CCOCC3)c3c(Nc4c(Cl)ccc5c4OCO5)ncnc3c2)CC1 [Saracatinib] + NC(=O)Nc1cc(-c2cccc(F)c2)sc1C(=O)N[C@H]1CCCNC1 [AZD7762] (partner 0.2 µM)
1.12

###

tested on: 201T; test: relative viability (nuclei count vs DMSO), 5 days (fraction); higher = more cells survive; settings: first compound 0.002 µM
reportedMetric: relative viability

Reference set (3 entries):
1) CCNC(=O)c1noc(-c2cc(C(C)C)c(O)cc2O)c1-c1ccc(CN2CCOCC2)cc1 [Luminespib] + C[C@]1(O)C[C@@H](c2nc(-c3ccc4ccc(-c5ccccc5)nc4c3)c3c(N)nccn32)C1 [Linsitinib] (partner 1 µM)
1.03
2) CCNC(=O)c1noc(-c2cc(C(C)C)c(O)cc2O)c1-c1ccc(CN2CCOCC2)cc1 [Luminespib] + Cc1cc(Nc2cc(N3CCN(C)CC3)nc(Sc3ccc(NC(=O)C4CC4)cc3)n2)n[nH]1 [Tozasertib] (partner 0.1 µM)
0.988
3) CCNC(=O)c1noc(-c2cc(C(C)C)c(O)cc2O)c1-c1ccc(CN2CCOCC2)cc1 [Luminespib] + CC(=O)Nc1cccc(-n2c(=O)n(C3CC3)c(=O)c3c(Nc4ccc(I)cc4F)n(C)c(=O)c(C)c32)c1 [Trametinib] (partner 0.02 µM)
0.667

# evaluate next
Which relative viability is reported for this compound? CCNC(=O)c1noc(-c2cc(C(C)C)c(O)cc2O)c1-c1ccc(CN2CCOCC2)cc1 [Luminespib] + Nc1ncn([C@H]2C[C@H](O)[C@@H](CO)O2)c(=O)n1 [Decitabine] (partner 2 µM)
0.832
